biological target: Sphingosine 1-phosphate receptor 1 (Homo sapiens, UniProt P21453); assay: direct activation of human S1P1 – cell-based, agonist mode, 60K MLSMR set, dose response (AID 468)
Sequence (P21453 whole entry): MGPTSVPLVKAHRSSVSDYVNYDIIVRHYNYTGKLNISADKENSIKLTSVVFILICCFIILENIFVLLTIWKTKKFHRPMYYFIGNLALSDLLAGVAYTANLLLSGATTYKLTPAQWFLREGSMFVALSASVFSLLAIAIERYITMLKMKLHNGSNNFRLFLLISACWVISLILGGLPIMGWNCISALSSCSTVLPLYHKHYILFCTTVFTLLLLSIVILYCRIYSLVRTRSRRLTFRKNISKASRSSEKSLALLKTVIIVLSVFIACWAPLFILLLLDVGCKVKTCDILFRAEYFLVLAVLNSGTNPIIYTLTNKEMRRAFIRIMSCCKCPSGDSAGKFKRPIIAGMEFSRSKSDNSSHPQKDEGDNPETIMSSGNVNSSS
The following molecules are listed with their measured EC50 values.
Return type: number; implicit unit µM.

COc1ccccc1N=C(N)Nc1nc(CSc2ccc(C)cc2)cc(=O)[nH]1    7.29
CNc1oc(-c2ccc(OCc3ccccc3)cc2)nc1C#N    3.21
COc1ccc(-c2nc(-c3ccccc3OC)no2)cc1OC    0.166
O=C(Nc1ccc(N2CCOCC2)c(Cl)c1)c1cccc(F)c1    1.23
Oc1ccc(-c2nnc(SCC3CCCCC3)o2)cc1    0.552
CC1=NC(=O)NC(c2ccc(F)cc2)C1C(=O)OCc1ccc2c(c1)OCO2 (stereo unspecified)    0.437
O=C(Nc1nc(-c2ccc3c(c2)OCO3)cs1)c1ccncc1    9.54
CCOc1ccc(C(C)=O)cc1-n1c(O)c2c(c1O)C1C=CC2O1    10.2

Query molecule follows.
Observed EC50, Sphingosine 1-phosphate receptor 1 (Homo sapiens, UniProt P21453), Cc1ccc2oc(-c3ccc(NC(=O)c4cccnc4)cc3)nc2c1 : 3.05
